Reference source: ChEMBL document CHEMBL4513216

TEST PROTOCOL: Toxicity liver stage against HepG2, at 10uM
Type: cell-based
Set-up: test concentration 10 uM, cell line HepG2-A16-CD81EGFP
SETTINGS: human, HepG2-A16-CD81EGFP cells; read-out: INHIBITION
RESULT TYPE: cytotoxicity at 10 µM

Below: 3 molecules and their reported cytotoxicity at 10 µM.
- MOLECULE: "Cc1cc(C)nc(-n2nc(C)c3c2NC(=O)CSC3c2cnn(C)c2)n1 (stereo unspecified)"
  RECORDED VALUE: "-36.5%"
- MOLECULE: "CN(C)C(=O)CN1C[C@H]2CCN(c3ncccn3)CC[C@H]2S1(=O)=O"
  RECORDED VALUE: "0.466%"
- MOLECULE: "CC(C)COCCC(=O)NCCC(=O)N1CCN(c2ccccn2)CC1"
  RECORDED VALUE: "9.46%"

For every item in the list below, what is its measured cytotoxicity at 10 µM?
1. Cc1nn(C)c(C)c1C1CCCN1CC(=O)NCc1ccco1 (stereo unspecified)
2. Cn1cnc2c1CCN(Cc1nc(-c3ccsc3)no1)C2
3. Cc1cc(CN(C)C(=O)CN2CCCCCC2=O)no1
4. CC(C)C(=O)NS(=O)(=O)c1ccc(C#N)cc1C(F)(F)F

Response:
-12.4%
-3.29%
7.41%
-12.3%
